Experiment: Measurement of plasma protein binding (equilibrium dialysis)
Assay type: in vitro ADME
Details: pooled human plasma, human plasma vs buffer pH 7.4, 37° C., 10 μM compound, read-out: % Bound Human Plasma (converted)
observed property: fraction unbound at 10 µM
Lab note: jot the number down without any unit.

Ask: Could you share which fraction unbound at 10 µM value was measured for COc1nc(F)cnc1NS(=O)(=O)c1cccc(F)c1Cl [Example 1] ?
Reply: 0.01

Ask: Could you share which fraction unbound at 10 µM value was measured for COc1nc(Cl)cnc1NS(=O)(=O)c1cccc(Cl)c1Cl [Ex. 5 WO03/059893, reference compound] ?
Reply: 0.002

Ask: Could you share which fraction unbound at 10 µM value was measured for COc1nccnc1NS(=O)(=O)c1cccc(Cl)c1Cl [Ex. 30 WO03/059893, reference compound] ?
Reply: 0.011

Ask: Could you share which fraction unbound at 10 µM value was measured for COc1nc(F)cnc1NS(=O)(=O)c1cccc(Cl)c1Cl [Example 2] ?
Reply: 0.006

Ask: Could you share which fraction unbound at 10 µM value was measured for COc1nc(F)cnc1NS(=O)(=O)c1cccc(Cl)c1C [Example 7] ?
Reply: 0.004

Ask: Could you share which fraction unbound at 10 µM value was measured for COc1nc(Br)cnc1NS(=O)(=O)c1cccc(Cl)c1Cl [Ex. 8 WO03/059893, reference compound] ?
Reply: 0.002

Ask: Could you share which fraction unbound at 10 µM value was measured for COc1nc(F)cnc1NS(=O)(=O)c1cccc(Cl)c1F [Example 5] ?
Reply: 0.011

Ask: Could you share which fraction unbound at 10 µM value was measured for COc1nc(CO)c(F)nc1NS(=O)(=O)c1cccc(Cl)c1Cl [Example 4] ?
Reply: 0.013

Ask: Could you share which fraction unbound at 10 µM value was measured for COc1nc(F)c(CO)nc1NS(=O)(=O)c1cccc(Cl)c1Cl [Example 6] ?
Reply: 0.005

Ask: Could you share which fraction unbound at 10 µM value was measured for COc1ncc(F)nc1NS(=O)(=O)c1cccc(Cl)c1Cl [Example 3] ?
Reply: 0.003

---

Target: CCR4 (Homo sapiens, UniProt P51679)
Construct: host or cells: CHO-K1
Sequence (P51679 1-360): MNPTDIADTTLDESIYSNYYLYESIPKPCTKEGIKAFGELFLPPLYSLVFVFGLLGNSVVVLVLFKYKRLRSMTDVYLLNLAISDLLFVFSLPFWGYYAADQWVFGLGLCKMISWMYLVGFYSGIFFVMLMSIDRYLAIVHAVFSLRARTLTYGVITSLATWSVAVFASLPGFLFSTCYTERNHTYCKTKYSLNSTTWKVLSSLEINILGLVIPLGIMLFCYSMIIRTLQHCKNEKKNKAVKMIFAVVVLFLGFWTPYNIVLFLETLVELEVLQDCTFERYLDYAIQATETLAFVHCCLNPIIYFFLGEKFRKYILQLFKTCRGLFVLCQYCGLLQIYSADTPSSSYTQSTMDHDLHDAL
Experiment: Predicted whole blood potency
Conditions: calculated: CCR4 pIC50+Log((100−% Bound)/100)
Hi there, I'd appreciate the recorded Whole Blood Potency for every entry that follows.
Lab note: jot the number down without any unit.

Ask: Could you share which Whole Blood Potency value was measured for COc1nc(Br)cnc1NS(=O)(=O)c1cccc(Cl)c1Cl [Ex. 8 WO03/059893, reference compound] ?
Reply: 5.6

Ask: Could you share which Whole Blood Potency value was measured for COc1nc(CO)c(F)nc1NS(=O)(=O)c1cccc(Cl)c1Cl ?
Reply: 5.9

Ask: Could you share which Whole Blood Potency value was measured for COc1nc(F)cnc1NS(=O)(=O)c1cccc(Cl)c1C ?
Reply: 6.0

Ask: Could you share which Whole Blood Potency value was measured for COc1nc(F)c(CO)nc1NS(=O)(=O)c1cccc(Cl)c1Cl ?
Reply: 5.9

Ask: Could you share which Whole Blood Potency value was measured for COc1nccnc1NS(=O)(=O)c1cccc(Cl)c1Cl [Ex. 30 WO03/059893, reference compound] ?
Reply: 5.7

Ask: Could you share which Whole Blood Potency value was measured for COc1ncc(F)nc1NS(=O)(=O)c1cccc(Cl)c1Cl ?
Reply: 6.0

Ask: Could you share which Whole Blood Potency value was measured for COc1nc(F)cnc1NS(=O)(=O)c1cccc(F)c1Cl ?
Reply: 6.3

Ask: Could you share which Whole Blood Potency value was measured for COc1nc(Cl)cnc1NS(=O)(=O)c1cccc(Cl)c1Cl [Ex. 5 WO03/059893, reference compound] ?
Reply: 5.2

Ask: Could you share which Whole Blood Potency value was measured for COc1nc(F)cnc1NS(=O)(=O)c1cccc(Cl)c1Cl ?
Reply: 6.3

Ask: Could you share which Whole Blood Potency value was measured for COc1nc(F)cnc1NS(=O)(=O)c1cccc(Cl)c1F ?
Reply: 6.0

---

Hi there, I'd appreciate the recorded IC50 for every entry that follows.
Biological target: CCR4 (Homo sapiens, UniProt P51679)
Construct: host or cells: CHO-K1
Assay: FMAT whole cell binding assay
Details: CHO-K1 cells expressing human recombinant CCR4; inhibition of FB-MDC binding; read-out: FMAT CCR4 pIC50 (converted)
Param answer (str): number followed by unit.

Ask: Could you share which IC50 value was measured for COc1nc(F)cnc1NS(=O)(=O)c1cccc(Cl)c1Cl ?
Reply: 3.16 nM

Ask: Could you share which IC50 value was measured for COc1nc(F)c(CO)nc1NS(=O)(=O)c1cccc(Cl)c1Cl ?
Reply: 6.31 nM

Ask: Could you share which IC50 value was measured for COc1nc(Cl)cnc1NS(=O)(=O)c1cccc(Cl)c1Cl [Ex. 5 WO03/059893, reference compound] ?
Reply: 12.6 nM

Ask: Could you share which IC50 value was measured for COc1ncc(F)nc1NS(=O)(=O)c1cccc(Cl)c1Cl ?
Reply: 3.16 nM

Ask: Could you share which IC50 value was measured for COc1nccnc1NS(=O)(=O)c1cccc(Cl)c1Cl [Ex. 30 WO03/059893, reference compound] ?
Reply: 20 nM

Ask: Could you share which IC50 value was measured for COc1nc(CO)c(F)nc1NS(=O)(=O)c1cccc(Cl)c1Cl ?
Reply: 15.8 nM

Ask: Could you share which IC50 value was measured for COc1nc(F)cnc1NS(=O)(=O)c1cccc(Cl)c1C ?
Reply: 3.98 nM

Ask: Could you share which IC50 value was measured for COc1nc(Br)cnc1NS(=O)(=O)c1cccc(Cl)c1Cl [Ex. 8 WO03/059893, reference compound] ?
Reply: 5.01 nM

Ask: Could you share which IC50 value was measured for COc1nc(F)cnc1NS(=O)(=O)c1cccc(F)c1Cl ?
Reply: 5.01 nM

Ask: Could you share which IC50 value was measured for COc1nc(F)cnc1NS(=O)(=O)c1cccc(Cl)c1F ?
Reply: 10 nM
